# TARGET DESC: T1, Claudin 18.2 (CLDN18.2), expressed on CHOS-CLDN 18.2 / HEK293-CLDN 18.2 / HCC827-CLDN 18.2 cells (human, UniProt P56856-2 1-261)
# T1 construct: whole, on cells; The species is not repeated for the CHOS-CLDN 18.2 cells; also called claudin-18A2
# PROTOCOL SUMMARY: FACS, CHOS-CLDN18.2 cells, 0.313 µg/ml
READOUT LABEL: FACS reading

Asked: Entry QP14501446 (antibody, human IgG1, kappa, V domains shown, Humanized from QP199200) VH: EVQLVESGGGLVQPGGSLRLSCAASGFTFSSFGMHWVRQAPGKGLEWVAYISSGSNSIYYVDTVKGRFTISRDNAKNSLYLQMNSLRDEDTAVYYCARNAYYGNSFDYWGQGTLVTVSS VL: DIVMTQSPDSLAVSLGERATINCKSSQSLLNSGNQKNYLTWYQQKPGQPPKLLIYWASTRESGVPDRFSGSGSGTDFTLTISSLQAEDVAVYYCQNNYYYPLTFGGGTKVEIKR : reported FACS reading = ?
Given back: 39500
